Tested on: EhAGCK2
METHOD SUMMARY: ADP-Glo kinase assay with peptide substrates / ATP, EhAGCK2 WT
Format: biochemical, Entamoeba histolytica
STATED CONDITIONS: S3 Table; ADP-Glo, Michaelis-Menten fit at various substrate concentrations; 20 μM kinase, 250 μM ATP; mean ± SE, n = 6; read-out: Peptide Km in the presence of EhAGCK2
Assignment: determine reported Km for the given sequences.
Answers are plain numbers, in µM.

The cases that follow already have their Km on record.
Q: Using the record for KTITPVVEDPCER [HEAT repeat domain-containing protein, peptide 661-673 of E. histolytica HEAT repeat domain-containing protein (EHI_050150)] , report its Km.
Result: 0.262

Q: Using the record for ELDSDEEQKELER [Filamin-A interacting protein] , report its Km.
Result: 0.147

Now look at this one.
Q: Using the record for SALDNGTYSPLLSPTR [RhoGEF-1, peptide 236-251 of E. histolytica RhoGEF-1 (EHI_159500)] , report its Km.
Result: 0.271
